# assayed-system: T1, human Chemokine like receptor 1 (human, UniProt Q99788 1-373)
# T1 sequence (looked up): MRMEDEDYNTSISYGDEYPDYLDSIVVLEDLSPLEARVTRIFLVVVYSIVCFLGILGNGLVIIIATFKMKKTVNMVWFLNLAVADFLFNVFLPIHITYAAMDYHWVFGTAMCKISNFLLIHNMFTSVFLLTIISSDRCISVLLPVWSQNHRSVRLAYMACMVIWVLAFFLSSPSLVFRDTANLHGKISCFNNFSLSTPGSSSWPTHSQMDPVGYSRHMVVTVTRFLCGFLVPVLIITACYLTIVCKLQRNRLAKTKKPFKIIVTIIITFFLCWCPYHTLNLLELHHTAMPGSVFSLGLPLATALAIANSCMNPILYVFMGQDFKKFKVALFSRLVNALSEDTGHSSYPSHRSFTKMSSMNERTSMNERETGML
# assay-method-text: cell-based or functional assay
Square brackets hold non-standard residues; d marks the D form. Ends that are not written are not given here. DiMe = N,N-dimethyl (N-terminal dimethylation); Bpa = N[C@@H](Cc1ccc(C(=O)c2ccccc2)cc1)C(=O)O; Phe(4-Me) = Cc1ccc(C[C@H](N)C(=O)O)cc1; dNMeY = CN[C@H](Cc1ccc(O)cc1)C(=O)O; NMeF = CN[C@@H](Cc1ccccc1)C(=O)O; Tic = O=C(O)[C@@H]1Cc2ccccc2CN1; NMeL = CN[C@@H](CC(C)C)C(=O)O
Field: EC50 (µM), activation of Tango CMKLR1-bla U2OS cells. Provide a value for each of the binders that follow.
// units = µM; emit number, no label

Quick one: EC50 (µM), activation of Tango CMKLR1-bla U2OS cells of {2,3‑dihydroxybenzoyl}-[dY]FLP[dS]QF[dA][Tic]S-OH [YW-127] ?
0.01

Cool, now [dY][NMeF]LP[dS]QF[dA][Tic]S-OH (N-terminus assumed; SMILES CC(C)C[C@H](NC(=O)[C@H](Cc1ccccc1)N(C)C(=O)[C@H](N)Cc1ccc(O)cc1)C(=O)N1CCC[C@H]1C(=O)N[C@H](CO)C(=O)N[C@@H](CCC(N)=O)C(=O)N[C@@H](Cc1ccccc1)C(=O)N[C@H](C)C(=O)N1Cc2ccccc2C[C@H]1C(=O)N[C@@H](CO)C(=O)O) [YW-104]
0.08

Same read-out for [dY][Bpa][NMeL]P[dS]QF[dA][Tic]S [YW-201] ?
0.076

Thanks! And [dNMeY]FLP[dS]QF[dA][Tic]S-OH (N-terminus assumed; SMILES CN[C@H](Cc1ccc(O)cc1)C(=O)N[C@@H](Cc1ccccc1)C(=O)N[C@@H](CC(C)C)C(=O)N1CCC[C@H]1C(=O)N[C@H](CO)C(=O)N[C@@H](CCC(N)=O)C(=O)N[C@@H](Cc1ccccc1)C(=O)N[C@H](C)C(=O)N1Cc2ccccc2C[C@H]1C(=O)N[C@@H](CO)C(=O)O) [YW-103] ?
0.0094

Try this binder too: DiMe-[dY]F[NMeL]P[dS]QF[dA][Tic]S [YW-192]
0.0026

Next: [dY]FLP[dS]QF[dA][Tic]T-OH (N-terminus assumed; SMILES CC(C)C[C@H](NC(=O)[C@H](Cc1ccccc1)NC(=O)[C@H](N)Cc1ccc(O)cc1)C(=O)N1CCC[C@H]1C(=O)N[C@H](CO)C(=O)N[C@@H](CCC(N)=O)C(=O)N[C@@H](Cc1ccccc1)C(=O)N[C@H](C)C(=O)N1Cc2ccccc2C[C@H]1C(=O)N[C@H](C(=O)O)[C@@H](C)O) [YW-160]
0.285

// same read-out, input: [dY]F[NMeL]P[dS]QF[dA][Phe(4-Me)]S [YW-205]
0.0062
